Record form. Attribute: koff. Fill in for each entry.
# system-tested: T1, human Ig1,2 TrkA (recombinant D4-D5 domain of human TrkA receptor) (human, UniProt P04629 191-392)
# T1 construct: also called hTrkA Ig1,2; TrkA Ig1,2
# T1 chain: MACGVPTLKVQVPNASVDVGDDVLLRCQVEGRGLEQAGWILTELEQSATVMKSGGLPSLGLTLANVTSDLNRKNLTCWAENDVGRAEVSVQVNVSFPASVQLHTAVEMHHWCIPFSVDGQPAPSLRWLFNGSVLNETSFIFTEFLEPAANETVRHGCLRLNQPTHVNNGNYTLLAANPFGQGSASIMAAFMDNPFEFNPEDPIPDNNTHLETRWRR
# measurement-protocol: SPR (Biacore X-100); scFv immobilised on CM5 chip, human Ig1,2 TrkA injected
Give bare numbers, in s⁻¹.

binder	koff [s⁻¹]
anti-TrkA scFv CRB0069 (scFv, From hSPLINT_09 selection) scFv: QPGLTQPPSASGTPGQRVTISCTGSSSNVGAGYTVHWYQQLPGTAPTLLIYDNNNRPSGVPDRFSGSRSGTSASLAITGLRAEDEADYYCQSYDRSRVYVFGTGTKLTVLSGGSTSGSGKPGSGEGSSGTQVQLQQSGPGLVKPSQTLSLTCAISGDSVSSNSAAWNWIRQSPSRGLERLGRTYYRSKWYNDYAESVKSRIIINSGTSKNQFSLHLNSVTPEDTAVYYCGRAKDGWYDAFDIWGQGTTVTVSS	3.57e-05
anti-TrkA scFv CRB0072 (scFv, From hSPLINT_09 selection) scFv: DIQMTQSPISLSATVGDRVTITCRASQSIGRYLNWYQQKPGKAPKLLIYGASSLESGVPSRFSGSGSGTVFTLTISGLQPEDFATYCCQQSHSTAWTFGQGTKVEIKSGGSTSGSGKPGSGEGSSGTEVQLVETGGGLVQPGSSLRLSCATSGFTFINYGVHWVRQPPGKGLEWVASIWYEGSNEKYADSVKGRFTISRDNSRYTLHLQLNSLRAEDTADYYCVRDRGTGDYRNSRFYYGMDVWGQGTTVTVSS	7.48e-06
anti-TrkA scFv CRB0082 (scFv, From hSPLINT_09 selection) scFv: SYVLTQPPSVSVAPGTTARLSCEATKIGSQRLHWYQQKPGQAPVMVISFDSDRPSGIPDRFSGSRSGNTATLTISGVEAGDEADYYCNSRDSSGYHLVFGGGTKLTVLSGGSTSGSGKPGSGEGSSGTQVQLQQSGPGLVKPSQTLSLTCAISGDSVSSFTVAWNWIRQSPSRGLERLGRTYRRSKDYAEYMRSRLTINADTSKNQLSLQLDSVTPDDTAVYYCARGQNSAFDLWGQRTMVTVSS	8.79e-05

Report koff for anti-TrkA scFv CRB0084 (scFv, From hSPLINT_09 selection) scFv: QPVLTQPPSVSVAPRQTATITCGGNYIGSKSVHWYQQKPGQDPVLVVNDDSDRPSGIPERFSGSNSANTATLTISGVEAGDEADYYCQVWDSSTEPVVFGGGTKLTVLSGGSTSGSGKPGSGEGSSGTQVQLQQWGAGLLRPSETLSLTCTVSGGSFSDSYWTWIRQSPGKGLEWIGENNHRGSTNYSPTLRSRLSISIDSSKNQFSLKLSSVTAADTAVYYCARVPYRLRSRIFDVWGQGTMVTVSS please.
0.0163

Reference source: patent US20160244529A1
